# Measured Target: T1, TBD-17 (HC S104A)
# T1 construct: Fab; also called HC S104A mutant
# T1 sequence (VH, as listed by the source, chain 1 of 2): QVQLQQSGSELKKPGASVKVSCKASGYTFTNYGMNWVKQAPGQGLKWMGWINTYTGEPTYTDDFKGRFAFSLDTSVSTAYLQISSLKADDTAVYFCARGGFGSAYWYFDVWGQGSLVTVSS
# T1 sequence (VL, as listed by the source, chain 2 of 2): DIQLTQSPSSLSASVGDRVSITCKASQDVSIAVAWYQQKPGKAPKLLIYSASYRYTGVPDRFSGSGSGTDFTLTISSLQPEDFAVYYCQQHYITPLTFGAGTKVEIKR
# Assay Procedure: competition ELISA, peptide vs Fab binding to captured biotin-TROP2
Where no end group is shown, it is not given here.
Measured Parameter: IC50 (nM)

Check out these entries, answers already filled in.
>>> print(df.to_string())
                                     binder  observed_measurement
0  IDFCMLYNWPICAG (cysteine pairing not given here; also: biotinylated, site not given here) [Peptide-3]                  1480
1  VDFCSIYHWPVCYV (cysteine pairing not given here; also: biotinylated, site not given here) [Peptide-38]                  2030

a. PDFCAVYRWPICYQ (cysteine pairing not given here; also: biotinylated, site not given here) [Peptide-64]
b. EDFCYWYQWPICSD (cysteine pairing not given here; also: biotinylated, site not given here) [Peptide-35]
Problem: Which gives the smaller IC50 number: a or b ? I would appreciate it if you answered with the label of your choice.
Result: a
(a: 1600 nM, b: 9400 nM)

Entry source: patent US20230357429A1
